Target: kappa opioid receptor (Homo sapiens)
Test Details: biochemical
Assay type: biochemical
Design: expressed in transfected cells; host or cells: transfected cells
Condition Info: Table 2; read-out: kappa % stimulation
Property: Emax (%)
Lab book: enter the figure in %, no units written.

// sample CC(=O)OC[C@H]1OC(SC2C=CC3C4Cc5ccc(O)c6c5C3(CCN4C)C2O6)[C@H](OC(C)=O)[C@@H](OC(C)=O)[C@@H]1OC(C)=O (stereo partly drawn) , its Emax was 26.5

// sample CN1CCC23c4c5ccc(O)c4OC2C(NC(=O)c2ccc(Cl)c(Cl)c2)C=CC3C1C5 (stereo not drawn) [13g, 6β-(3′,4′-Dichloro)benzamidomorphine] , its Emax was 78.5

// sample COC(=O)[C@H]1OC(SC2C=CC3C4Cc5ccc(OC)c6c5C3(CCN4C)C2O6)[C@H](OC(C)=O)[C@@H](OC(C)=O)[C@@H]1OC(C)=O (stereo partly drawn) , its Emax was 24.3

// sample CN1CCC23c4c5ccc(O)c4OC2C(SC2O[C@H](CO)[C@@H](O)[C@H](O)[C@H]2O)C=CC3C1C5 (stereo partly drawn) [4b, 6β-Thiomorphine-6β-S-D-glucopyranoside] , its Emax was 42.5

// sample CN1CCC23c4c5ccc(O)c4OC2C(NC(=O)c2cccc([N+](=O)[O-])c2)C=CC3C1C5 (stereo not drawn) [13f, 6β-(3′Nitro)benzamidomorphine] , its Emax was 90.3

// sample COc1ccc2c3c1OC1C(SC4O[C@H](CO)[C@@H](O)[C@H](O)[C@H]4O)C=CC4C(C2)N(C)CCC341 (stereo partly drawn) , its Emax was 21

====

Property: melting point (°C)
Lab book: enter the figure in °C, no units written.

CC(=O)OC[C@H]1OC(SC2C=CC3C4Cc5ccc(OC(C)=O)c6c5C3(CCN4C)C2O6)[C@H](OC(C)=O)[C@@H](OC(C)=O)[C@@H]1OC(C)=O (stereo partly shown) :: 151.9

// sample COc1ccc2c3c1OC1C(SC4O[C@H](COC(C)=O)[C@@H](OC(C)=O)[C@H](OC(C)=O)[C@H]4OC(C)=O)C=CC4C(C2)N(C)CCC341 (stereo partly shown) , its melting point was 142.5

// sample CC(=O)OC[C@H]1OC(SC2C=CC3C4Cc5ccc(O)c6c5C3(CCN4C)C2O6)[C@H](OC(C)=O)[C@@H](OC(C)=O)[C@@H]1OC(C)=O (stereo partly shown) , its melting point was 165.4

====

Catalogue of compounds with associated Ki
Target: kappa opioid receptor (Homo sapiens, UniProt P41145)
Sequence (P41145 whole entry): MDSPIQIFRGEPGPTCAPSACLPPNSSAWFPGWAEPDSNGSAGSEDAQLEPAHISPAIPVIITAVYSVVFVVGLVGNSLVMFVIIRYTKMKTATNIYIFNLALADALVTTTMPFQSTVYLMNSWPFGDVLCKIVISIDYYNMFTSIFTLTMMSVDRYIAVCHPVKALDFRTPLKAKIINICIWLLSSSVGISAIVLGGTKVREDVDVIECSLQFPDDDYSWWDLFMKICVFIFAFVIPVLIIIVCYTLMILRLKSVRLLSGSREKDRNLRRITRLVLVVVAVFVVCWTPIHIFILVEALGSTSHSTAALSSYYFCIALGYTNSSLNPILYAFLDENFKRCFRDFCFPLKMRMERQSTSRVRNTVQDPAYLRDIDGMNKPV
Test Details: biochemical
Format: binding
Set-up: expressed in transfected cells; host or cells: transfected cells
Condition Info: Table 1; read-out: Ki κ
Lab book: enter the figure in nM, no units written.

Previously resolved entries follow.
COc1cccc(C(=O)NC2C=CC3C4Cc5ccc(O)c6c5C3(CCN4C)C2O6)c1 (stereo not drawn) [13c, 6β-(3-Methoxy)benzamidomorphine] :: 2.65
CN1CCC23c4c5ccc(O)c4OC2C(NC(=O)c2ccccc2)C=CC3C1C5 (stereo not shown) [13d, 60-Benzamidomorphine] :: 4.13

// sample CN1CCC23c4c5ccc(O)c4OC2C(SC2O[C@H](C(=O)O)[C@@H](O)[C@H](O)[C@H]2O)C=CC3C1C5 (stereo partly drawn) [4a, Morphine-6β-S-D-glucuronide] , its Ki was 288

====

Target: mu receptor (Mus musculus, UniProt P42866)
Construct: expressed in transfected cells
Sequence (P42866 whole entry): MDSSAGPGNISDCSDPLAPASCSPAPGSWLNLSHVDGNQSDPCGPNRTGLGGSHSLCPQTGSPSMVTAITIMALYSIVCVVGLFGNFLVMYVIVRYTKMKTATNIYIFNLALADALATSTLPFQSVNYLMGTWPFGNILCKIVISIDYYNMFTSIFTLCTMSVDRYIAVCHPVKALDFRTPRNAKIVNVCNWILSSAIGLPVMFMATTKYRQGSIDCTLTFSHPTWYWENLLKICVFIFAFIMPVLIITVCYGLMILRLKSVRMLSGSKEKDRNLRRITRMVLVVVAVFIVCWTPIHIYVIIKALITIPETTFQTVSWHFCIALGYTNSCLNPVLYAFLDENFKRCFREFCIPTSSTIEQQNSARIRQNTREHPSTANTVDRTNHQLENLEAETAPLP
Test Details: cell-based
Condition Info: 1 μM compound; surface staining relative to control, lower = more internalization
Property: remaining activity at 1 µM (%)
Lab book: enter the figure in %, no units written.

// sample COc1cccc(C(=O)NC2C=CC3C4Cc5ccc(O)c6c5C3(CCN4C)C2O6)c1 (stereo not drawn) [13c, 6β-(3-Methoxy)benzamidomorphine] , its remaining activity at 1 µM was 74.5

// sample COC(=O)c1cccc(C(=O)NC2C=CC3C4Cc5ccc(O)c6c5C3(CCN4C)C2O6)c1 (stereo not drawn) [13e, 6β-(3′-Carbomethoxy)benzamidomorphine] , its remaining activity at 1 µM was 81.8

// sample CN1CCC23c4c5ccc(O)c4OC2C(NC(=O)c2cccc([N+](=O)[O-])c2)C=CC3C1C5 (stereo not drawn) [13f, 6β-(3′Nitro)benzamidomorphine] , its remaining activity at 1 µM was 59

====

Target: kappa opioid receptor (Homo sapiens, UniProt P41145)
Test Details: biochemical
Assay type: binding
Set-up: expressed in transfected cells; host or cells: transfected cells
Catalogue of molecules with associated Ki
Lab book: enter the figure in nM, no units written.

Previously resolved entries follow.
CN(C)c1cccc(C(=O)NC2CCC3(O)C4Cc5ccc(O)c6c5C3(CCN4CC3CC3)C2O6)c1 (stereo not drawn) [6c] :: 7.1
O=C(Cc1cccs1)NC1CCC2(O)C3Cc4ccc(O)c5c4C2(CCN3CC2CC2)C1O5 (stereo not drawn) [6e] :: 7.1

# next molecule below
// sample COc1cccc(C(=O)NC2CCC3(O)C4Cc5ccc(O)c6c5C3(CCN4CC3CC3)C2O6)c1 (stereo not drawn) [6d] , its Ki was 0.6

====

Target: delta opioid receptor (Homo sapiens)
Sequence (P41143 whole entry): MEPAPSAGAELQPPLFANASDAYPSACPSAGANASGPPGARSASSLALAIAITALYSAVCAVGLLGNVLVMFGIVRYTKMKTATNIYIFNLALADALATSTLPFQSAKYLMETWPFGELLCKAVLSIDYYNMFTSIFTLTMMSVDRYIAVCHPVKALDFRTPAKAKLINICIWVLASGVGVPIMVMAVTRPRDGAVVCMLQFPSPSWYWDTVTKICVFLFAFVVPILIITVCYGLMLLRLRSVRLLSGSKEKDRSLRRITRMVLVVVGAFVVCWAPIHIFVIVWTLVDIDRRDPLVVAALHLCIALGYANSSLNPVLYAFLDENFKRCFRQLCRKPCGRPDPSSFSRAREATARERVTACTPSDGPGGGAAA
Test Details: Stimulation of [35S]GTPγS binding (coupling to G proteins)
Assay type: biochemical
Parameters: expressed in transfected cells; host or cells: transfected cells
Condition Info: Table 2; read-out: delta EC50
Catalogue of compounds with associated EC50
Lab book: enter the figure in nM, no units written.

Previously resolved entries follow.
COC(=O)[C@H]1OC(CC(=O)NC2C=CC3C4Cc5ccc(O)c6c5C3(CCN4C)C2O6)[C@H](OC(C)=O)[C@@H](OC(C)=O)[C@@H]1OC(C)=O (stereo in doubt) [compound 10] :: 29.6
COC(=O)[C@H]1OC(CC(=O)NC2C=CC3C4Cc5ccc(OC)c6c5C3(CCN4C)C2O6)[C@H](OC(C)=O)[C@@H](OC(C)=O)[C@@H]1OC(C)=O (some centres unmarked) [9b] :: 425
CC(=O)OC[C@H]1OC(SC2C=CC3C4Cc5ccc(OC(C)=O)c6c5C3(CCN4C)C2O6)[C@H](OC(C)=O)[C@@H](OC(C)=O)[C@@H]1OC(C)=O (some centres unmarked) [3c] :: 3660
COc1ccc2c3c1OC1C(NC(=O)CC4O[C@H](C(=O)O)[C@@H](O)[C@H](O)[C@H]4O)C=CC4C(C2)N(C)CCC341 (some centres unmarked) [11b] :: 1030
COc1ccc2c3c1OC1C(SC4O[C@H](COC(C)=O)[C@@H](OC(C)=O)[C@H](OC(C)=O)[C@H]4OC(C)=O)C=CC4C(C2)N(C)CCC341 (some centres unmarked) [3f] :: 872
COC(=O)[C@H]1OC(SC2C=CC3C4Cc5ccc(OC)c6c5C3(CCN4C)C2O6)[C@H](OC(C)=O)[C@@H](OC(C)=O)[C@@H]1OC(C)=O (some centres unmarked) [3e] :: 1010
CC(=O)OC[C@H]1OC(SC2C=CC3C4Cc5ccc(O)c6c5C3(CCN4C)C2O6)[C@H](OC(C)=O)[C@@H](OC(C)=O)[C@@H]1OC(C)=O (some centres unmarked) [3d] :: 63.8

// sample CN1CCC23c4c5ccc(O)c4OC2C(NC(=O)CC2O[C@H](C(=O)O)[C@@H](O)[C@H](O)[C@H]2O)C=CC3C1C5 (stereo partly drawn) [11a, 6β-(α-Glucuronosyl)acetamidomorphine] , its EC50 was 67.6

====

Catalogue of compounds with associated Emax
Target: kappa opioid receptor (Homo sapiens)
Test Details: biochemical
Assay type: biochemical
Parameters: expressed in transfected cells; host or cells: transfected cells
Condition Info: Table 2; read-out: kappa % stimulation
Lab book: enter the figure in %, no units written.

Previously resolved entries follow.
COC(=O)[C@H]1OC(CC(=O)NC2C=CC3C4Cc5ccc(O)c6c5C3(CCN4C)C2O6)[C@H](OC(C)=O)[C@@H](OC(C)=O)[C@@H]1OC(C)=O (stereo in doubt) [compound 10] :: 45.2
CN1CCC23c4c5ccc(O)c4OC2C(NC(=O)CC2O[C@H](C(=O)O)[C@@H](O)[C@H](O)[C@H]2O)C=CC3C1C5 (stereo partly drawn) [11a, 6β-(α-Glucuronosyl)acetamidomorphine] :: 49.5
CN1CCC23c4c5ccc(O)c4OC2C(NC(=O)c2cccc(C(=O)O)c2)C=CC3C1C5 (stereo not drawn) [compound 14, 6β-(3′Carboxy)benzamidomorphine] :: 71
COc1ccc(CC(=O)NC2C=CC3C4Cc5ccc(O)c6c5C3(CCN4C)C2O6)cc1 (stereo not drawn) [13b, 6β-(4-Methoxyphenyl)acetamidomorphine] :: 81.5

# next compound below
// sample COc1cccc(C(=O)NC2C=CC3C4Cc5ccc(O)c6c5C3(CCN4C)C2O6)c1 (stereo not drawn) [13c, 6β-(3-Methoxy)benzamidomorphine] , its Emax was 86

====

Catalogue of compounds with associated melting point

Previously resolved entries follow.
COC(=O)[C@H]1OC(SC2C=CC3C4Cc5ccc(OC)c6c5C3(CCN4C)C2O6)[C@H](OC(C)=O)[C@@H](OC(C)=O)[C@@H]1OC(C)=O (stereo partly drawn) [3e] :: 172 °C
CN1CCC23c4c5ccc(O)c4OC2C(NC(=O)c2cccc([N+](=O)[O-])c2)C=CC3C1C5 (stereo not drawn) [13f, 6β-(3′Nitro)benzamidomorphine] :: 208.3 °C (dec.)

// sample CN1CCC23c4c5ccc(O)c4OC2C(SC2O[C@H](CO)[C@@H](O)[C@H](O)[C@H]2O)C=CC3C1C5 (stereo partly drawn) [4b, 6β-Thiomorphine-6β-S-D-glucopyranoside] , its melting point was > 300 °C (dec.)

// sample COc1ccc2c3c1OC1C(SC4O[C@H](CO)[C@@H](O)[C@H](O)[C@H]4O)C=CC4C(C2)N(C)CCC341 (stereo partly drawn) [4d, 6β-Thiocodeine-6β-S-D-glucose] , its melting point was 201.6 °C

// sample COc1cccc(C(=O)NC2C=CC3C4Cc5ccc(O)c6c5C3(CCN4C)C2O6)c1 (stereo not drawn) [13c, 6β-(3-Methoxy)benzamidomorphine] , its melting point was 212.9 °C (dec.)

// sample CN1CCC23c4c5ccc(O)c4OC2C(NC(=O)c2cccc(C(=O)O)c2)C=CC3C1C5 (stereo not drawn) [compound 14, 6β-(3′Carboxy)benzamidomorphine] , its melting point was 217.1 °C (dec.)

// sample COc1cccc(CC(=O)NC2C=CC3C4Cc5ccc(O)c6c5C3(CCN4C)C2O6)c1 (stereo not drawn) [13a, 6β-(3-Methoxyphenyl)acetamidomorphine] , its melting point was 144 °C

// sample CN1CCC23c4c5ccc(O)c4OC2C(NC(=O)Cc2cccs2)C=CC3C1C5 (stereo not drawn) [13h, 6β-(Thiophen-2′-yl)acetamidomorphine] , its melting point was 154.4 °C

// sample CN1CCC23c4c5ccc(O)c4OC2C(NC(=O)c2ccccc2)C=CC3C1C5 (stereo not drawn) [13d, 60-Benzamidomorphine] , its melting point was 184.4 °C (dec.)

// sample CN1CCC23c4c5ccc(O)c4OC2C(NC(=O)c2ccc(Cl)c(Cl)c2)C=CC3C1C5 (stereo not drawn) [13g, 6β-(3′,4′-Dichloro)benzamidomorphine] , its melting point was 228.5 °C (dec.)

// sample COc1ccc2c3c1OC1C(SC4O[C@H](C(=O)O)[C@@H](O)[C@H](O)[C@H]4O)C=CC4C(C2)N(C)CCC341 (stereo partly drawn) [4c, Codeine 6β-S-glucuronide] , its melting point was > 300 °C (dec.)

// sample COC(=O)c1cccc(C(=O)NC2C=CC3C4Cc5ccc(O)c6c5C3(CCN4C)C2O6)c1 (stereo not drawn) [13e, 6β-(3′-Carbomethoxy)benzamidomorphine] , its melting point was 166 °C (dec.)
